Target: human GPBAR1 receptor (Homo sapiens)
Sequence (Q8TDU6 1-330): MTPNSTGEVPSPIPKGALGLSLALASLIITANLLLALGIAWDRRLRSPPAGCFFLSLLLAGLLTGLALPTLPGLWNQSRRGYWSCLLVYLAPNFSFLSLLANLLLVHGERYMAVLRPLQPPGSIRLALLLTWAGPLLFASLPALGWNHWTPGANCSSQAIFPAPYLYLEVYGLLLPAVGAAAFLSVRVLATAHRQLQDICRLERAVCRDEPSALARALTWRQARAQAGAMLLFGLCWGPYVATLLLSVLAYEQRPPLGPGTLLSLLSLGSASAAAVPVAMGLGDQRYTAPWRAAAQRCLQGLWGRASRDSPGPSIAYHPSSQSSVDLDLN
Assay: functional cAMP assay in CHO-dhfr(minus) cells expressing human GPBAR1 receptors
Conditions: cAMP increase (TR-FRET) in CHO-dhfr(minus) cells expressing human GPBAR1; compounds incubated 30 min at 30° C.
Each record is given MET if its reported EC50 is strictly below 70 nM. Records at or above 70 nM are given NOT MET.

Q) Hi there! Is EC50 for `O=C(c1cccnc1Oc1cccc(Cl)c1)N1CCOc2ccccc21` below 70 nM, do you know?
A) NOT MET

Q) In the record for `Cc1cccc2c1N(C(=O)c1cc(F)cnc1Oc1ccc(F)c(Cl)c1)CCC2` , is EC50 less than 70 nM?
A) NOT MET

Q) Does this molecule meet the criterion EC50 < 70 nM? `COC(=O)CCCCCN1CCN(C(=O)c2cc(F)cnc2Oc2cc(Cl)ccc2Cl)c2ccccc21`
A) NOT MET

Q) EC50 strictly < 70 nM for this molecule? `O=C(c1cccnc1Oc1cc(Cl)ccc1Cl)N1CCNc2ccccc21`
A) MET

Q) Identify whether the molecule `O=C(c1cccnc1Oc1cccc(Cl)c1)N1CCCc2ccccc21` records EC50 below 70 nM.
A) NOT MET

Q) Regarding `O=C(c1ccncc1Oc1ccc(F)c(Cl)c1)N1CCCc2cc(F)cc(F)c21` , kindly confirm whether its EC50 is beneath 70 nM.
A) NOT MET

Q) Just wondering, is EC50 of `O=C(c1cccnc1Oc1cc(Cl)ccc1Cl)N1CCCc2ccc(F)cc21` below 70 nM?
A) MET

Reference for the values: patent US8309734B2
